# ASSAY_INFO: refractive index (Na D-line) (dimensionless); xn = mol fraction of the nth substance listed
# EXPERIMENTAL_CONTEXT: 298.15 K; 100.5 kPa; Liquid; Standard Abbe refractometry; x1 = 0.15
Assignment: determine reported refractive index for the given molecules.
The reply should be a number, written without any unit.

Note to self: refractive index recorded for CCCCCC(=O)OCC [ethyl hexanoate] + CCO was 1.37461

Note to self: refractive index recorded for CCCC(=O)OCCC(C)C [3-methylbutyl butanoate] + CCO was 1.37656

Note to self: refractive index recorded for CCOC(=O)Cc1ccccc1 [ethyl phenylacetate] + CCO was 1.40441

Note to self: refractive index recorded for CCOC(=O)c1ccccc1 [ethyl benzoate] + CCO was 1.40452

Note to self: refractive index recorded for CCCCCCCC(=O)OCC [ethyl octanoate] + CCO was 1.38028

Note to self: refractive index recorded for CC(=O)OCCC(C)C [3-methylbutyl ethanoate] + CCO was 1.37133

---

# ASSAY_INFO: xn = mol fraction of the nth substance listed
# EXPERIMENTAL_CONTEXT: 308.15 K, x1 = 0.55
Numbers after ± are expanded uncertainties.
Assignment: determine reported surface tension liquid-gas for the given molecules.
Quick note: number first, unit second.

Note to self: surface tension liquid-gas recorded for CCCCCC(=O)OCC [ethyl hexanoate] + CCO was 23.6 ± 0.6 mN/m

Note to self: surface tension liquid-gas recorded for CCCCCCCC(=O)OCC [ethyl octanoate] + CCO was 24.5 ± 0.6 mN/m

Note to self: surface tension liquid-gas recorded for CCOC(=O)c1ccccc1 [ethyl benzoate] + CCO was 28.1 ± 0.6 mN/m

Note to self: surface tension liquid-gas recorded for CC(=O)OCCC(C)C [3-methylbutyl ethanoate] + CCO was 22.5 ± 0.4 mN/m

Note to self: surface tension liquid-gas recorded for CCCC(=O)OCCC(C)C [3-methylbutyl butanoate] + CCO was 23.1 ± 0.6 mN/m

Note to self: surface tension liquid-gas recorded for CCOC(=O)Cc1ccccc1 [ethyl phenylacetate] + CCO was 28 ± 0.6 mN/m

---

# ASSAY_INFO: refractive index (Na D-line) (dimensionless); xn = mol fraction of the nth substance listed
# EXPERIMENTAL_CONTEXT: 308.15 K; 100.5 kPa; Liquid; Standard Abbe refractometry; x1 = 0.45
TEST_READOUT: refractive index
The reply should be a number, written without any unit.

Note to self: refractive index recorded for CC(=O)OCCC(C)C [3-methylbutyl ethanoate] + CCO was 1.38087

Note to self: refractive index recorded for CCCC(=O)OCCC(C)C [3-methylbutyl butanoate] + CCO was 1.38987

Note to self: refractive index recorded for CCCCCCCC(=O)OCC [ethyl octanoate] + CCO was 1.39624

Note to self: refractive index recorded for CCCCCC(=O)OCC [ethyl hexanoate] + CCO was 1.38663

Note to self: refractive index recorded for CCOC(=O)Cc1ccccc1 [ethyl phenylacetate] + CCO was 1.44951

Note to self: refractive index recorded for CCOC(=O)c1ccccc1 [ethyl benzoate] + CCO was 1.45236

---

Assignment: determine reported refractive index for the given compounds.
# ASSAY_INFO: refractive index (Na D-line) (dimensionless); xn = mol fraction of the nth substance listed
# EXPERIMENTAL_CONTEXT: 288.15 K; 100.5 kPa; Liquid; Standard Abbe refractometry; x1 = 0.35
The reply should be a number, written without any unit.

Note to self: refractive index recorded for CCCCCCCC(=O)OCC [ethyl octanoate] + CCO was 1.39979

Note to self: refractive index recorded for CCOC(=O)Cc1ccccc1 [ethyl phenylacetate] + CCO was 1.44556

Note to self: refractive index recorded for CC(=O)OCCC(C)C [3-methylbutyl ethanoate] + CCO was 1.38614

Note to self: refractive index recorded for CCOC(=O)c1ccccc1 [ethyl benzoate] + CCO was 1.44743

Note to self: refractive index recorded for CCCCCC(=O)OCC [ethyl hexanoate] + CCO was 1.39119

Note to self: refractive index recorded for CCCC(=O)OCCC(C)C [3-methylbutyl butanoate] + CCO was 1.39415
